Source of measurements: patent US20140004128A1

Each record here notes measured IC50, IFNγ release KG-1 cell assay, human IL-18.
Target: recombinant human IL-18 (human, UniProt Q14116 37-193)
Assay: cell-based or functional assay
Please state the figure in nM; there is no need to write the unit.

-- ask For Antibody 5 scFv (scFv, V domains shown) VH: QVQLQQSGPRLVKPSQTLSLTCTVSGGSISSGGYYWSWIRQPAGKGLEWIGSIYYSGSTYYNPSLKSRVTISGDTPKNQFSLKLSSVTAADTAVYYCARTPAYDGDARADFFDVWGRGTLVTVSS VL: DIVMTQSPSTLSASVGDRVTITCRASQGISSWLAWYQQKPGRAPKVLIYKASTLESGVPSRFSGSGSGTDFTLTISSLQPEDFATYYCQQSLIPQWDFGQGTKLEIK , what is its reported IC50, IFNγ release KG-1 cell assay, human IL-18?
-- reply 45.1
